- Test system: Escherichia coli
- Assay procedure: Antimicrobial activity against fluoroquinolone-resistant Escherichia coli NorE5 harboring GyrA S83L mutant, ParC S80R mutant, truncated SoxR and constitutively active SoxS by Etest
- Assay type: functional
Measured quantity: MIC

* CN(C)[C@@H]1C(O)=C(C(N)=O)C(=O)[C@@]2(O)C(O)=C3C(=O)c4c(O)cccc4[C@@](C)(O)[C@H]3C[C@@H]12 | 8 µg/mL
* CC[C@H]1OC(=O)[C@H](C)[C@@H](O[C@H]2C[C@@](C)(OC)[C@@H](O)[C@H](C)O2)[C@H](C)[C@@H](O[C@@H]2O[C@H](C)C[C@H](N(C)C)[C@H]2O)[C@](C)(O)C[C@@H](C)C(=O)[C@H](C)[C@@H](O)[C@]1(C)O | > 256 µg/mL
* COc1cc(Cc2cnc(N)nc2N)cc(OC)c1OC | 8 µg/mL
* CCn1cc(C(=O)O)c(=O)c2ccc(C)nc21 | 2050 µg/mL

###

- System: Escherichia coli
- Assay procedure: Antimicrobial activity against fluoroquinolone-resistant Escherichia coli NorE5 harboring GyrA S83L mutant, ParC S80R mutant, truncated SoxR and constitutively active SoxS by Etest
- Assay type: functional
Measured quantity: MIC (µg/mL)

* O=C(N[C@H](CO)[C@H](O)c1ccc([N+](=O)[O-])cc1)C(Cl)Cl [CHLORAMPHENICOL] | 64
* NCC[C@H](O)C(=O)N[C@@H]1C[C@H](N)[C@@H](O[C@H]2O[C@H](CN)[C@@H](O)[C@H](O)[C@H]2O)[C@H](O)[C@H]1O[C@H]1O[C@H](CO)[C@@H](O)[C@H](N)[C@H]1O [AMIKACIN] | 12
* CCn1cc(C(=O)O)c(=O)c2cc(F)c(N3CCNCC3)cc21 [NORFLOXACIN] | 32
